B1: library; a variant is named by its letters at X, in order (parent)
chain: MNIQIGELAKRTACPVVTIRFYEQEGLLPPPGRSRGNFRLYGEEHVERLQFIRHCRSLDMPLSXVRTLLSYRKRPDQDCGEVXMLLDEHIRQVESRIGALLELXHHXVELREACSGARPAQSCGILQXLSXCVCXTRGTTAHXSD

variants of: B1; assay: sfGFP reporter fluorescence (15 h) (µM FITC); higher = higher leak; settings: library round: Round 3; ligand: none
sfGFP reporter fluorescence below 0.7 gives FALSE; sfGFP reporter fluorescence at or above it gives TRUE.

- LIVCGAAP H54C C55P H106L: FALSE
- KNVCMDDP M60L: TRUE
- TIVLGDDR H106A: FALSE
- KNKCIDDP M60L P61N: TRUE
- LIKLGDDP V16C M60V E81A R111A: FALSE
- DTKLGSPP Q121A: FALSE
- KNVEGDDP M60L P61N: FALSE
- DNKCGSAY: TRUE
- KNVCIDDP M60L P61N: FALSE
- DNVCMDDP V16C P61N: FALSE
- KNVCGDDP M60L P61S: TRUE
- DCKLGADY V16C H106A: FALSE
- DVVLGDDR H106A: FALSE
- LIVCGAAP V16C H54C C55P H106L: FALSE
- DNKCMDAK G124A: FALSE
- DSKLGHPY: FALSE
- DNKCGADY M60L: TRUE
- LILCGAAP V16C H54C C55P H106A: FALSE
- DTKCGCDA: FALSE
- DNVCIDDA M60L: TRUE
- DTKLGSDP Q121A H142A: FALSE
- KNKCGADP M60L P61N: TRUE
- DCVLGDDP V16C H54A: FALSE
- KNKCSDDP M60L P61N: TRUE
- DNRCIDDP M60L P61N: TRUE
- DTKLGSPP V108L: FALSE
- KNVCMDDP V16C P61N: FALSE
- LCKCGAAP V16C H54C C55P H106L: FALSE
- DNKLHAPW L101V: FALSE
- DSKLGSPP V108L: FALSE
- DCKVGDDP V82I L85M: FALSE
- DTKLGDRR E109L: FALSE
- DNRCGAAP: TRUE
- KNVLMDDP M60L P61N: FALSE
- KNMCMDDP P61N: TRUE
- KIVLGDDR H106E: FALSE
- NNKCMDDP M60L P61N: TRUE
- KFVLGDDP P61T H106A: FALSE
- KIVCMDDP: FALSE
- DNKCGAAP H54C C55A: TRUE
- KNVCMDDP V16C: TRUE
- DSKLGAPW: FALSE
- TTKCGDRP: TRUE
- KNVCGDDP M60L E81A: TRUE
- DTKCIDAK: FALSE
- DNRLHCDL E109L: FALSE
